Molecular target: ATP-dependent translocase ABCB1 (Homo sapiens, UniProt P08183)
Sequence (P08183 whole entry): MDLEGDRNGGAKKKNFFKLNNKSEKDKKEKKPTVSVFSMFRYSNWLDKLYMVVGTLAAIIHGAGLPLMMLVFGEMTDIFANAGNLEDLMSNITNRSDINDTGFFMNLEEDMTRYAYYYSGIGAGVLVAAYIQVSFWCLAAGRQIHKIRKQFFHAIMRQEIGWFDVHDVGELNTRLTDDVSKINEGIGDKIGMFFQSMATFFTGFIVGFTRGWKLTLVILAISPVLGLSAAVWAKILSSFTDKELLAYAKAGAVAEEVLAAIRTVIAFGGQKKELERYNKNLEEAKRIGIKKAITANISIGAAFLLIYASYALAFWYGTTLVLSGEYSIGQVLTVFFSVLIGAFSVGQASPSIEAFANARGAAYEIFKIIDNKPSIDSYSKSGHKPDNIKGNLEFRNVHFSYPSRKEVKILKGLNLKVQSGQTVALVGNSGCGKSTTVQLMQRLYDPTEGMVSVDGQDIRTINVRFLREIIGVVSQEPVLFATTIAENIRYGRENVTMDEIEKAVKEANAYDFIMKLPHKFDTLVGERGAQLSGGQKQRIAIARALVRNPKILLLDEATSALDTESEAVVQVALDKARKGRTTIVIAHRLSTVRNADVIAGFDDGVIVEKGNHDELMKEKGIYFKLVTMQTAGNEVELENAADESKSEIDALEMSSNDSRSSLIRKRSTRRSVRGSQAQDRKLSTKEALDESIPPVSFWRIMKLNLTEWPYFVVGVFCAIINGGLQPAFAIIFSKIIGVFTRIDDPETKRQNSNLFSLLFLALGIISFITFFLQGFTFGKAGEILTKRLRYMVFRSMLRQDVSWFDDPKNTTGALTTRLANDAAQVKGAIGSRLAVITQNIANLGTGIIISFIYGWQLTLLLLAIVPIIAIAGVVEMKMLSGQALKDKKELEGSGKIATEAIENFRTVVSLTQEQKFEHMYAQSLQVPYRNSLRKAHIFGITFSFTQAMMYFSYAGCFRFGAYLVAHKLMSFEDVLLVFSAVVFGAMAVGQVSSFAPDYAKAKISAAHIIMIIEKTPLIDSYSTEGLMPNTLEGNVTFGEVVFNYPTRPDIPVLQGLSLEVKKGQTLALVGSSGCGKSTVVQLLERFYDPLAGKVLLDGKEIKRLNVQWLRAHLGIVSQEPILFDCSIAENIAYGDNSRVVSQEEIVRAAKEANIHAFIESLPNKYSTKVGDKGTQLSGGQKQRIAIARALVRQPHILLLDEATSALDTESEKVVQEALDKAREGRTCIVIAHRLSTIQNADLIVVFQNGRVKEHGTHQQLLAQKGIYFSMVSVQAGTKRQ
Assay: Activation of human P-gp ATPase in human Caco-2 cells at 100 uM
Assay type: cell-based
Settings: caco-2, 100 µM
measurement.label: Activity

smiles.input	measurement
COc1ccc2cc(CN3CCc4cc(OC)c(OC)cc4C3)ccc2c1	Not Active
COc1cc2c(cc1OC)CN(CC/C=C1\CCCc3c(OC)cccc31)CC2	Not Active
COc1cc2c(cc1OC)CN(Cc1ccc(-c3ccc(O)cc3)cc1)CC2	Not Active
COc1cc2c(cc1OC)CN(Cc1cccc(-c3ccccc3)c1)CC2	Not Active
COc1cc2c(cc1OC)CN(Cc1ccccc1-c1ccccc1)CC2	Not Active
COc1cc2c(cc1OC)CN(CCc1ccc(NC(=O)c3cccc4c(=O)c5cccc(OC)c5[nH]c34)cc1)CC2	Not Active
COc1ccc2cc(C(=O)N3CCc4cc(OC)c(OC)cc4C3)ccc2c1	Not Active
COc1cc2c(cc1OC)CN(C(=O)c1ccc3cc(O)ccc3c1)CC2	40%
COc1cc2c(cc1OC)CN(Cc1ccc3cc(O)ccc3c1)CC2	10%
COc1cc2c(cc1OC)CN(C(=O)c1ccc3ccccc3c1)CC2	10%
COc1cc2c(cc1OC)CN(C(=O)c1ccc(-c3ccc(O)cc3)cc1)CC2	Not Active
COc1cc2c(cc1OC)CN(C(=O)c1ccc(-c3ccccc3)cc1)CC2	35%
COc1cc2c(cc1OC)CN(Cc1ccc(-c3ccccc3)cc1)CC2	Not Active
COc1cc2c(cc1OC)CN(Cc1ccc3ccccc3c1)CC2	Not Active
